# System Name: CDK2/Cyclin A (Homo sapiens, UniProt P24941)
# Measurement Protocol: Inhibition of CDK2/Cyclin A Retinoblastoma Kinase Activity
# Type: biochemical
# Experimental Parameters: at 0.03 μM
Measured Parameter: CDK2 % Inhibition at 0.03 μM (%)

* COc1cc(Cl)ccc1C(=O)N1CCC(Nc2nc(N)c(C(=O)c3c(F)cccc3F)s2)CC1 | 45
* CC(C)S(=O)(=O)c1csc(C(=O)N2CCC(Nc3nc(N)c(C(=O)c4c(F)cccc4F)s3)CC2)c1 | 11
* COC(=O)c1ccc(C(=O)N2CCC(Nc3nc(N)c(C(=O)c4c(F)cccc4F)s3)CC2)cc1 [Example R151] | 24
* COc1ccc(C(=O)N2CCC(Nc3nc(N)c(C(=O)c4c(F)cccc4F)s3)CC2)cc1 | 20

* * *

# System Name: human CDK4 and genetically truncated (1-264) cyclin D3 (Homo sapiens, UniProt P11802)
# Sequence (P11802 whole entry, the tested form may be a part): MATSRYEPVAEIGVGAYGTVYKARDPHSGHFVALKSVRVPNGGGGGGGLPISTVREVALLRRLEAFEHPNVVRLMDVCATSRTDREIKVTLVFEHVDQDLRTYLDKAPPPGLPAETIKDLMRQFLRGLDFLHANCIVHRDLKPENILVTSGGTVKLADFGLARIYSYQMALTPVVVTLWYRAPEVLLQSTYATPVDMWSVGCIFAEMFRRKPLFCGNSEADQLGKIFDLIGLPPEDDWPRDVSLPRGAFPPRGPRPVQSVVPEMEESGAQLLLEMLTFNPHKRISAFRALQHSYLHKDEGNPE
# Sequence (P30281 1-264 partner): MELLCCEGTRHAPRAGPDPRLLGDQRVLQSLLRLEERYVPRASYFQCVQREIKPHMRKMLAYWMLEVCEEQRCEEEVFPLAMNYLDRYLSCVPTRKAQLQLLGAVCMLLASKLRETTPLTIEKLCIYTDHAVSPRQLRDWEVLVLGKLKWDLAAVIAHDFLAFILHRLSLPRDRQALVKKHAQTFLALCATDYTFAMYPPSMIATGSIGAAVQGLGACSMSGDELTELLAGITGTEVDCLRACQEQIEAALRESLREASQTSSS
# Measurement Protocol: Inhibition of CDK4/Cyclin D Retinoblastoma Kinase Activity
# Experimental Parameters: apparent Ki, CDK4/truncated cyclin D3, Rb fragment substrate, 25 μM ATP
Where a name gives a salt, the structure may show the parent alone.
We label by threshold. Values of Ki strictly beneath 1 nM are MET. Values of 1 nM and up are NOT MET.

* CN(C)S(=O)(=O)N1CCC(Nc2nc(N)c(C(=O)c3c(F)cccc3F)s2)CC1 [Example E1] | NOT MET
* COc1ccc(S(=O)(=O)N2CCC(Nc3nc(N)c(C(=O)c4c(F)cccc4F)s3)CC2)cc1 | NOT MET
* Nc1nc(NC2CCN(S(=O)(=O)c3ccc(OCc4cccnc4)nc3)CC2)sc1C(=O)c1c(F)cccc1F [Example H8, Trifluoroacetic Acid Salt] | MET
* Nc1nc(NC2CCN(Cc3ccccc3)CC2)sc1C(=O)c1c(F)cccc1F | NOT MET
* CN(C)CCOc1ccc(S(=O)(=O)N2CCC(Nc3nc(N)c(C(=O)c4c(Cl)cccc4Cl)s3)CC2)cn1 [Example H17, Hydrochloride Salt] | NOT MET
* Nc1nc(NC2CCN(S(=O)(=O)CCc3ccncc3)CC2)sc1C(=O)c1c(F)cccc1F | NOT MET
* CC(C)S(=O)(=O)N1CCC(Nc2nc(N)c(C(=O)c3c(F)cccc3F)s2)CC1 | NOT MET
* COCCNCCS(=O)(=O)N1CCC(Nc2nc(N)c(C(=O)c3c(F)cccc3F)s2)CC1 [Example K25, Trifluoroacetic Acid Salt] | NOT MET
* CN1CCC[C@@H](COc2ccc(S(=O)(=O)N3CCC(Nc4nc(N)c(C(=O)c5c(F)cccc5F)s4)CC3)cn2)C1 (stereo in doubt) | MET
* Cn1cnc(-c2ccc(S(=O)(=O)N3CCC(Nc4nc(N)c(C(=O)c5c(F)cccc5F)s4)CC3)cc2)c1 [Example F31, Trifluoroacetic Acid Salt] | MET
* CN(C)CCS(=O)(=O)N1CCC(Nc2nc(N)c(C(=O)c3c(F)cccc3F)s2)CC1 | NOT MET
* Nc1nc(NC2CCN(S(=O)(=O)c3ccc(OCCN4CCOCC4)nc3)CC2)sc1C(=O)c1c(F)cccc1F [Example H2, Hydrochloride] | MET
* Nc1nc(NC2CCN(S(=O)(=O)c3ccc(CCN4CCOCC4)nc3)CC2)sc1C(=O)c1c(F)cccc1F [Example N3, Hydrochloride Salt] | MET
* Nc1nc(NC2CCN(S(=O)(=O)c3ccc(N4CC[S+]([O-])CC4)nc3)CC2)sc1C(=O)c1c(F)cccc1F | MET
* Cc1cn(-c2ccc(S(=O)(=O)N3CCC(Nc4nc(N)c(C(=O)c5c(F)cccc5F)s4)CC3)cn2)cn1 [Example G27, Hydrochloride] | MET
* Nc1nc(NC2CCN(S(=O)(=O)CCCN3CCSCC3)CC2)sc1C(=O)c1c(F)cccc1F | NOT MET
* CN(C)CCN(C)c1ccc(C(=O)N2CCC(Nc3nc(N)c(C(=O)c4c(F)cccc4F)s3)CC2)cn1 [Example G32, Trifluoroacetic Acid Salt] | NOT MET
* Nc1nc(NC2CCN(S(=O)(=O)CCCN3CCCCC3)CC2)sc1C(=O)c1c(F)cccc1F | NOT MET
* CN1CCC(Nc2nc(N)c(C(=O)c3c(F)cccc3F)s2)CC1 | NOT MET
* Nc1nc(NC2CCN(S(=O)(=O)CCCN3CCC3)CC2)sc1C(=O)c1c(F)cccc1F | NOT MET
* Nc1nc(NC2CCN(S(=O)(=O)c3ccc(N4CCCC(O)C4)nc3)CC2)sc1C(=O)c1c(F)cccc1F (stereo not shown) [Example G12, Trifluoroacetic Acid Salt] | NOT MET
* Nc1nc(NC2CCN(C(=O)c3ccc(Br)cc3)CC2)sc1C(=O)c1c(F)cccc1F | NOT MET
* Nc1nc(NC2CCN(S(=O)(=O)c3ccc(NCCO)nc3)CC2)sc1C(=O)c1c(F)cccc1F | NOT MET
* Nc1nc(NC2CCN(S(=O)(=O)c3ccc(OCCO)nc3)CC2)sc1C(=O)c1c(F)cccc1F | NOT MET
* CN1CCN(S(=O)(=O)N2CCC(Nc3nc(N)c(C(=O)c4c(F)cccc4F)s3)CC2)CC1 | NOT MET
* CN(CCS(=O)(=O)N1CCC(Nc2nc(N)c(C(=O)c3c(F)cccc3F)s2)CC1)Cc1ccccc1 | NOT MET
* Cc1nccn1-c1ccc(S(=O)(=O)N2CCC(Nc3nc(N)c(C(=O)c4c(F)cccc4F)s3)CC2)cn1 | NOT MET
* Nc1nc(NC2CCN(S(=O)(=O)c3ccc(Cc4ncc[nH]4)nc3)CC2)sc1C(=O)c1c(F)cccc1F [Example I4, Hydrochloride] | NOT MET

* * *

# System Name: CDK2/Cyclin A (Homo sapiens)
# Measurement Protocol: Inhibition of CDK2/Cyclin A Retinoblastoma Kinase Activity
# Experimental Parameters: apparent Ki, CDK2/proteolyzed cyclin A, Rb fragment substrate, 25 μM ATP
pKi: −log10 of the molar value. Where a name gives a salt, the structure may show the parent alone.
Listed below: pKi values for each entry.
Measured Parameter: pKi

• Nc1nc(NC2CCN(S(=O)(=O)CCCN3CCc4ccccc4C3)CC2)sc1C(=O)c1c(F)cccc1F = 9.00
• Nc1nc(NC2CCN(S(=O)(=O)c3ccc(-n4ccnc4)cc3)CC2)sc1C(=O)c1c(F)cccc1F = 9.51
• Nc1nc(NC2CCN(C(=O)CCN3CCCCC3)CC2)sc1C(=O)c1c(F)cccc1F = 6.40
• CC1CC(NCCS(=O)(=O)N2CCC(Nc3nc(N)c(C(=O)c4c(F)cccc4F)s3)CC2)CC(C)(C)C1 (stereo not shown) = 9.31
• Nc1nc(NC2CCN(Cc3ccncc3)CC2)sc1C(=O)c1c(F)cccc1F = 6.36
• Cc1cn(-c2ccc(S(=O)(=O)N3CCC(Nc4nc(N)c(C(=O)c5c(F)cccc5F)s4)CC3)cn2)cn1 [Example G27, Hydrochloride] = 9.39

* * *

# System Name: human CDK4 and genetically truncated (1-264) cyclin D3 (Homo sapiens, UniProt P11802)
# Measurement Protocol: Inhibition of CDK4/Cyclin D Retinoblastoma Kinase Activity
# Experimental Parameters: apparent Ki, CDK4/truncated cyclin D3, Rb fragment substrate, 25 μM ATP
Structures can show the parent of a compound that is named as a salt.
Label satisfied when Ki is strictly below 2 nM; otherwise label not satisfied.

• Cc1ccc(C(=O)N2CCC(Nc3nc(N)c(C(=O)c4c(F)cccc4F)s3)CC2)cc1C = not satisfied
• CN1CCC(c2ccc(S(=O)(=O)N3CCC(Nc4nc(N)c(C(=O)c5c(F)cccc5F)s4)CC3)cc2)C1 (stereo not shown) [Example F25, Dihydrochloride] = satisfied
• CN(C)CCCc1ccc(S(=O)(=O)N2CCC(Nc3nc(N)c(C(=O)c4c(F)cccc4F)s3)CC2)cn1 = satisfied
• Nc1nc(NC2CCN(S(=O)(=O)c3ccc(NCC(O)CO)nc3)CC2)sc1C(=O)c1c(F)cccc1F (stereo not shown) = not satisfied
• Nc1nc(NC2CCN(S(=O)(=O)c3ccc(-c4ccccn4)s3)CC2)sc1C(=O)c1c(F)cccc1F = satisfied
• CN(C)CCCS(=O)(=O)N1CCC(Nc2nc(N)c(C(=O)c3c(F)cccc3F)s2)CC1 = satisfied

* * *

# Test system: HCT-116 cell line
# Measurement Protocol: Inhibition of cell growth, tetrazolium salt (MTT) assay
# Format: cell-based
# Experimental Parameters: Homo sapiens, HCT-116, 120 h, first HCT-116 column (c4); MTT, three to five days; read-out: HCT-116 IC50
pIC50: −log10 of the molar value. Structures can show the parent of a compound that is named as a salt.
Classes are defined on pIC50 with ranges low end (below 6), middle (6 to below 7), high end (7 or more)

• CN1CCC[C@H]1COc1ccc(S(=O)(=O)N2CCC(Nc3nc(N)c(C(=O)c4c(F)cccc4F)s3)CC2)cn1 [Example H12] = high end
• Nc1nc(NC2CCN(S(=O)(=O)c3ccc(N4CCOCC4)nc3)CC2)sc1C(=O)c1c(F)cccc1F [Example F20, Hydrochloride] = middle
• Nc1nc(NC2CCN(S(=O)(=O)c3ccc(OCc4cccnc4)nc3)CC2)sc1C(=O)c1c(F)cccc1F [Example H8, Trifluoroacetic Acid Salt] = middle
• Nc1nc(NC2CCN(S(=O)(=O)c3cc(Cl)sc3Cl)CC2)sc1C(=O)c1c(F)cccc1F [Example F13] = middle
• CN1CCCC(COc2ccc(S(=O)(=O)N3CCC(Nc4nc(N)c(C(=O)c5c(F)cccc5F)s4)CC3)cn2)C1 (stereo not drawn) [Example H7, Trifluoroacetic Acid Salt] = high end
• Nc1nc(NC2CCN(S(=O)(=O)c3ccc(Cc4ncc[nH]4)nc3)CC2)sc1C(=O)c1c(F)cccc1F [Example I4, Hydrochloride] = low end
• Nc1nc(NC2CCN(S(=O)(=O)c3ccc(OCCn4ccnc4)nc3)CC2)sc1C(=O)c1c(F)cccc1F [Example H9, Hydrochloride] = middle
• Cn1cc(S(=O)(=O)N2CCC(Nc3nc(N)c(C(=O)c4c(F)cccc4F)s3)CC2)nc1Br [Example F48] = low end
• Nc1nc(NC2CCN(S(=O)(=O)c3ccc(SCCc4ccccn4)nc3)CC2)sc1C(=O)c1c(F)cccc1F [Example L3, Hydrochloride] = middle
• CS(=O)(=O)N1CCC(Nc2nc(N)c(C(=O)c3c(F)cccc3F)s2)CC1 [Example F3] = middle
• CN1CCC(Nc2nc(N)c(C(=O)c3c(F)cccc3F)s2)CC1 [Example A4] = low end
• Cc1cc(C(=O)N2CCC(Nc3nc(N)c(C(=O)c4c(F)cccc4F)s3)CC2)ccc1Cl [Example D7] = high end
• Nc1nc(NC2CCN(S(=O)(=O)c3ccc(NCC(O)CO)nc3)CC2)sc1C(=O)c1c(F)cccc1F (stereo not drawn) [Example G19] = low end
• CC1(C)CN=C(c2ccc(S(=O)(=O)N3CCC(Nc4nc(N)c(C(=O)c5c(F)cccc5F)s4)CC3)cc2)N1 [Example J2] = middle
• COc1ccc(S(=O)(=O)N2CCC(Nc3nc(N)c(C(=O)c4c(F)cccc4F)s3)CC2)cc1 [Example F7] = middle
• Cc1ccc(C(=O)N2CCC(Nc3nc(N)c(C(=O)c4c(F)cccc4F)s3)CC2)cc1C [Example D15] = high end
• CN(CCS(=O)(=O)N1CCC(Nc2nc(N)c(C(=O)c3c(F)cccc3F)s2)CC1)C1CCCC1 [Example K30, Trifluoroacetic Acid Salt] = middle
• COC(=O)c1sccc1S(=O)(=O)N1CCC(Nc2nc(N)c(C(=O)c3c(F)cccc3F)s2)CC1 [Example F10] = middle
• CN(C)CCOc1nc(S(=O)(=O)N2CCC(Nc3nc(N)c(C(=O)c4c(F)cccc4F)s3)CC2)cn1C [Example H25, Hydrochloride Salt] = low end

The measurements presented in this section are drawn from patent US20050101595A1.
